Target: BRAF G469A (Homo sapiens, UniProt P15056, G469A)
Construct: Horizon Discovery (HCT-116 BRAF−/− cells); host or cells: HCT-116 BRAF−/− cells, clone 34, lentiviral transduction
Sequence (P15056 whole entry G469A): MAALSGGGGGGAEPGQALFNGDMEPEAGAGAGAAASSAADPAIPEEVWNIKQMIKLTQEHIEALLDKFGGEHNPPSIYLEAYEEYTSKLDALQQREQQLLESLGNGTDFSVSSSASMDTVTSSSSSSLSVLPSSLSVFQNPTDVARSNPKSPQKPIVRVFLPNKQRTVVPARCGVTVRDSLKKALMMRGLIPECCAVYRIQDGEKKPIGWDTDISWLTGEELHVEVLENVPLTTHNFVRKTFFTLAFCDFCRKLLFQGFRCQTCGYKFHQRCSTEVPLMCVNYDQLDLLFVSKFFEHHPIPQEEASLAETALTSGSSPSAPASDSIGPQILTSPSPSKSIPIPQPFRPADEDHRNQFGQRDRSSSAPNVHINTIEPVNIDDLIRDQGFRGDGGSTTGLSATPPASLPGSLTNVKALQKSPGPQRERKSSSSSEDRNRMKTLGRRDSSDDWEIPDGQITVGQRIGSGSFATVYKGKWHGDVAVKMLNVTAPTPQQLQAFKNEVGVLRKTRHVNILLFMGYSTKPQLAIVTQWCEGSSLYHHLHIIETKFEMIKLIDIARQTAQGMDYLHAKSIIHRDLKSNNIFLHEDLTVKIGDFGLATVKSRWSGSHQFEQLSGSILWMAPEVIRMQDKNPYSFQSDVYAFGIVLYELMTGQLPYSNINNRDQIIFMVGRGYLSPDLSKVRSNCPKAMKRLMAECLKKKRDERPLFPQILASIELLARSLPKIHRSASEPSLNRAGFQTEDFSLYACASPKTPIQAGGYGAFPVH
Assay: BRAF HiBiT degradation assay, C-terminal HiBiT-tagged BRAF G469A overexpressed in HCT-116 BRAF−/− cells (clone 34), Nano-Glo HiBiT Lytic assay
Assay type: cell-based
Conditions: BRAF G469A (Class 2), HCT-116 BRAF−/− cells; observed Dmax relative to DMSO control
value.type: Dmax

molecule | value.type | experimental.value
C[C@@H]1CN(c2ccc(-n3cc(-c4cc(Cl)cc(NS(=O)(=O)N5CCCC5)c4F)c(-c4ccncc4)n3)cc2)CCN1CC1CCN(c2ccc([C@H]3CCC(=O)NC3=O)cc2)CC1 | Dmax | > 70%
O=C1CC[C@H](c2ccc(N3CCC(CN4CCN(c5ccc(-n6cc(-c7cc(Cl)cc(NS(=O)(=O)N8CC(F)C8)c7F)c(-c7ccncc7)n6)cc5)CC4)CC3)cc2)C(=O)N1 | Dmax | 30 to 70%
O=C1CCN(c2ccc(N3CCC(CN4CCN(c5ccc(-n6cc(-c7cc(Cl)cc(NS(=O)(=O)N8CC(F)C8)c7F)c(-c7ccncc7)n6)cc5)CC4)CC3)nc2)C(=O)N1 | Dmax | 30 to 70%
O=C1CCN(c2ccc(N3CCC(CN4CCN(c5ccc(-n6cc(-c7cc(Cl)cc(NS(=O)(=O)C8CCCC8)c7F)c(-c7ccncc7)n6)cc5)CC4)CC3)nc2)C(=O)N1 | Dmax | 30 to 70%
O=C1CC[C@@H](c2ccc(N3CCC(CN4CCN(c5ccc(-n6cc(-c7cc(Cl)cc(NS(=O)(=O)N8CCCC8)c7F)c(-c7ccncc7)n6)cc5)CC4)CC3)cc2F)C(=O)N1 | Dmax | 30 to 70%
CCCS(=O)(=O)Nc1cccc(-c2nc(C3CCC4(CC3)CCN(CC[C@H]3CCN(c5ccc(C6CCC(=O)NC6=O)cn5)C3)CC4)sc2-c2ccnc(N)n2)c1F (mixture of isomers) | Dmax | < 30%
C[C@@H]1CN(c2ccc(-n3cc(-c4cc(Cl)cc(NS(=O)(=O)N5CC[C@@H](F)C5)c4F)c(-c4ccncc4)n3)cc2)CCN1CC1CCN(c2ccc([C@H]3CCC(=O)NC3=O)cc2)CC1 | Dmax | > 70%
CCN(C)S(=O)(=O)Nc1cc(Cl)cc(-c2cn(-c3ccc(N4CCN(CC5CCN(c6ccc(N7CCC(=O)NC7=O)cc6)CC5)CC4)cc3)nc2-c2ccncc2)c1F | Dmax | 30 to 70%
O=C1CCC(c2ccc(N3CCC(CN4CCN(c5ccc(-n6cc(-c7cc(F)cc(NS(=O)(=O)N8CCCC8)c7F)c(-c7ccncc7)n6)cc5)CC4)CC3)nc2)C(=O)N1 (racemic) | Dmax | > 70%
CCN(C)S(=O)(=O)Nc1cc(Cl)cc(-c2cn(-c3ccc(N4CCN(CC5CCN(c6ccc([C@H]7CCC(=O)NC7=O)cc6)CC5)CC4)cc3)nc2-c2ccncc2)c1F | Dmax | 30 to 70%
O=C1CCC(c2ccc(N3CCC(CN4CCN(c5ccc(-n6cc(-c7cc(F)cc(NS(=O)(=O)N8CC[C@@H](F)C8)c7F)c(-c7ccncc7)n6)nc5)CC4)CC3)nc2)C(=O)N1 (mixture of isomers) | Dmax | > 70%
O=C1CC[C@H](c2ccc(N3CCC(CN4CCN(c5ccc(-n6cc(-c7cc(Cl)cc(NS(=O)(=O)N8CC[C@@H](F)C8)c7F)c(-c7ccncc7)n6)nc5)CC4)CC3)cc2)C(=O)N1 | Dmax | > 70%
CCCS(=O)(=O)Nc1cc(Cl)cc(-c2cn(-c3ccc(N4CCN(CC5CCN(c6ccc(C7CCC(=O)NC7=O)cn6)CC5)[C@@H](C)C4)cc3)nc2-c2ccncc2)c1F (mixture of isomers) | Dmax | 30 to 70%
CCN(C)S(=O)(=O)Nc1cccc(-c2cn(-c3ccc(N4CCN(CC5CCN(c6ccc([C@H]7CCC(=O)NC7=O)cn6)CC5)CC4)cc3F)nc2-c2ccncc2)c1F | Dmax | 30 to 70%
CCCS(=O)(=O)Nc1cccc(-c2nc(C3CCN(C(=O)C4CCN(CC5CCN(c6ccc(C7CCC(=O)NC7=O)cn6)CC5)CC4)CC3)sc2-c2ccnc(N)n2)c1F (racemic) | Dmax | 30 to 70%
CCCS(=O)(=O)Nc1cccc(-c2cn(-c3ccc(N4CCN(CC5CCN(c6ccc([C@H]7CCC(=O)NC7=O)cc6)CC5)[C@H](C)C4)cc3)nc2-c2ccncc2)c1F | Dmax | 30 to 70%
C[C@@H]1CN(c2ccc(-n3cc(-c4cc(Cl)cc(NS(=O)(=O)N5CCCC5)c4F)c(-c4ccncc4)n3)nc2)CCN1CC1CCN(c2ccc([C@H]3CCC(=O)NC3=O)cc2)CC1 | Dmax | 30 to 70%
C[C@@H]1CN(c2ccc(-n3cc(-c4cc(Cl)cc(NS(=O)(=O)N5CCCC5)c4F)c(-c4ccncc4)n3)c(F)c2)C[C@@H](C)N1CC1CCN(c2ccc(C3CCC(=O)NC3=O)cn2)CC1 (mixture of isomers) | Dmax | > 70%
CCCS(=O)(=O)Nc1cc(Cl)cc(-c2cn(-c3ccc(N4CCN(CC5CCN(c6ccc(N7CCC(=O)NC7=O)cc6)CC5)[C@@H](C)C4)cc3)nc2-c2ccncc2)c1F | Dmax | < 30%

Measured values drawn from patent US20260317324A1 for this set.
